Origin of measurements: patent US9440982B2

- assayed-system: CYP3A4 (Homo sapiens, UniProt P08684)
- Construct: pre-incubated with human liver microsomes and NADPH; from tissue; host or cells: human liver microsomes
- Sequence (P08684 whole entry): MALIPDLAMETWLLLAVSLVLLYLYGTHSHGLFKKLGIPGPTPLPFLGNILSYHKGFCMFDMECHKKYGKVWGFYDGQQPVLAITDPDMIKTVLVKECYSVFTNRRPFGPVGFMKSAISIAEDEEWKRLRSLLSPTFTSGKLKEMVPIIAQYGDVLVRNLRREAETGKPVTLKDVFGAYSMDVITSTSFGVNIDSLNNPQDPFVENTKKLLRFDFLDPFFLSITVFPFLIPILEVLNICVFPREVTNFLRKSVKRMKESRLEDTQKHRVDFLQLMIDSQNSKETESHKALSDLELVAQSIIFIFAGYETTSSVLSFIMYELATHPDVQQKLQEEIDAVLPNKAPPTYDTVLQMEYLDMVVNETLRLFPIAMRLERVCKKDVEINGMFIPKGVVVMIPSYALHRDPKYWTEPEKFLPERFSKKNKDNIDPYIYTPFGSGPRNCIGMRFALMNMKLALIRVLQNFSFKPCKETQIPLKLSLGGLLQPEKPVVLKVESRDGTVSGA
- run-description: Cytochrome P450 inhibition assay (midazolam hydroxylation)
- Assay type: in vitro ADME
- run-parameters: human, human liver microsomes, probe midazolam (hydroxylation to 1′-hydroxymidazolam), 10 μM test compound, midazolam at approximately its Km
Returns Satisfied if the recorded inhibition at 10 µM is greater than or equal to 60%, and Not satisfied otherwise.

smiles-repr	group-label
C[C@@H]1CCCN(C(=O)c2ccccc2-n2nccn2)[C@@H]1CNc1nc2cc(Cl)ccc2o1	Satisfied
Cc1ccc(-c2ncccn2)c(C(=O)N2CCC[C@@H](C)[C@H]2CNc2nc3cc(F)ccc3o2)c1	Not satisfied
C[C@@H]1CCCN(C(=O)c2cc(F)c(F)cc2-n2nccn2)[C@@H]1CNc1ncc(Cl)cn1	Satisfied
C[C@@H]1CCCN(C(=O)c2ccc(F)c(F)c2-n2nccn2)[C@@H]1CNc1ccc(C(F)(F)F)cn1	Satisfied
Cc1ccc(NC[C@@H]2[C@H](C)CCCN2C(=O)c2cc(C)ccc2-c2ncccn2)nc1	Satisfied
Cc1ccc(-n2ncc(C)n2)c(C(=O)N2CCC[C@@H](C)[C@H]2CNc2nnc(C(F)(F)F)s2)c1	Satisfied
Cc1ccc(-n2nccn2)c(C(=O)N2CCC[C@@H](C)[C@H]2CNc2nnc(C(F)(F)F)s2)n1	Not satisfied
C[C@@H]1CCCN(C(=O)c2c(F)cccc2-c2ncccn2)[C@@H]1CNc1ncc(C(F)(F)F)cn1	Not satisfied
C[C@@H]1CCCN(C(=O)c2cc(F)ccc2-n2nccn2)[C@@H]1CNc1ccc(Cl)cn1	Satisfied
Cc1ccc(-n2nccn2)c(C(=O)N2CCC[C@@H](C)[C@H]2CNc2ccc(C(F)(F)F)cn2)n1	Not satisfied
Cc1ccc(-c2cccnn2)c(C(=O)N2CCC[C@@H](C)[C@H]2CNc2ccc(C(F)(F)F)cn2)c1	Satisfied
Cc1ccc(-c2cnn(C)c2)c(C(=O)N2CCC[C@@H](C)[C@H]2CNc2ncccc2C)c1	Satisfied
C[C@@H]1CCCN(C(=O)c2cccc(F)c2-c2ncccn2)[C@@H]1CNc1ccc(C(F)(F)F)cn1	Satisfied
Cc1ccc(-n2nccn2)c(C(=O)N2CCC[C@@H](C)[C@H]2CNc2ncc(C#N)cn2)c1	Not satisfied

* * *

- assayed-system: OX2 (Homo sapiens, UniProt O43614)
- Construct: expressed in transfected cells; host or cells: CHO (CHO-OX2, kept under selection antibiotic)
- Sequence (O43614 1-444): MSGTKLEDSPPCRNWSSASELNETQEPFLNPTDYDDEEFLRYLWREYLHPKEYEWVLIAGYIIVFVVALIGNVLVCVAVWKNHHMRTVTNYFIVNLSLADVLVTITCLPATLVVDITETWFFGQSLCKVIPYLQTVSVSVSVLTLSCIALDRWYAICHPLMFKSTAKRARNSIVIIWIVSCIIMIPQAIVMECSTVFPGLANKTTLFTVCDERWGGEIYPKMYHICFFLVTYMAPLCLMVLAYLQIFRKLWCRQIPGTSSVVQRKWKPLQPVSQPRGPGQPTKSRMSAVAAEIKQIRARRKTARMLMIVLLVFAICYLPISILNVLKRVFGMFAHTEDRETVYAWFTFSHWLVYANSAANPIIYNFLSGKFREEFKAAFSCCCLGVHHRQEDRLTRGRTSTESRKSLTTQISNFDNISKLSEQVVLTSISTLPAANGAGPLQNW
- run-description: Orexin receptor cell-based functional assay, [Ca2+]i by FLIPR, CHO-OX2 cells
- run-parameters: Table 2, EC90 of OXA, read-out: IC50 Bioactivity OX2

compound	unit-spec	IC50
Cc1ccc(-n2cccn2)c(C(=O)N2CCC[C@@H](C)[C@H]2CNc2ccc(C(F)(F)F)cn2)c1 (racemic) [Example 120]	nM	500
